# Tested on: Mycobacterium tuberculosis (RFP sensitive)
# PROTOCOL DETAILS: Antibacterial activity (MIC) against Mycobacterium tuberculosis (RFP sensitive)
# Type: cell-based
# CONDITIONS USED: M. tuberculosis Kurono; Table 5

MOLECULE: COc1c(N2CC3CCCNC3C2)c(F)cc2c(=O)c(C(=O)O)cn([C@@H]3C[C@@H]3F)c12 (some centres unmarked) [Compd. 6]
MIC (µg/mL): 0.05

MOLECULE: Cc1c(N2CC(N)C3(CC3)C2)c(F)cc2c(=O)c(C(=O)O)cn(C3CC3)c12 (centres unmarked) [Compd. 11]
MIC (µg/mL): 0.05

MOLECULE: NC1CN(c2c(F)cc3c(=O)c(C(=O)O)cn([C@@H]4C[C@@H]4F)c3c2Cl)CC12CC2 (some centres unmarked) [Compd. 4]
MIC (µg/mL): 0.013

MOLECULE: O=C(O)c1cn(C2CC2)c2c(Cl)c(N3CC4CCCNC4C3)c(F)cc2c1=O (centres unmarked) [Compd. 1]
MIC (µg/mL): 0.013

MOLECULE: CC1COc2c(N3CCN(C)CC3)c(F)cc3c(=O)c(C(=O)O)cn1c23 (centres unmarked) [OFLX, OFLOXAIN, reference compound]
MIC (µg/mL): 0.39

MOLECULE: C[C@H]1COc2c(N3CC4CCCNC4C3)c(F)cc3c(=O)c(C(=O)O)cn1c23 (some centres unmarked) [Compd. 13]
MIC (µg/mL): 0.05

MOLECULE: C[C@H]1COc2c(N3CC(N)C4(CC4)C3)c(F)cc3c(=O)c(C(=O)O)cn1c23 (some centres unmarked) [Compd. 14]
MIC (µg/mL): 0.10

MOLECULE: Cc1c(N2CC(N)C3(CC3)C2)c(F)cc2c(=O)c(C(=O)O)cn([C@@H]3C[C@@H]3F)c12 (some centres unmarked) [Compd. 12]
MIC (µg/mL): 0.025

###

# System: M. intracellulare
# PROTOCOL DETAILS: Antibacterial activity (MIC) against M. intracellulare
# Type: cell-based, Mycobacterium intracellulare
# CONDITIONS USED: M. intracellulare N-313; Table 3
Listing: MIC of selected molecules

MOLECULE: COc1c(N2CC(N)C3(CC3)C2)c(F)cc2c(=O)c(C(=O)O)cn(C3CC3)c12 (centres unmarked)
STUDY TARGET: M. intracellulare
MEASURE UNIT: µg/mL
MIC: 0.2
//
MOLECULE: CC1COc2c(N3CCN(C)CC3)c(F)cc3c(=O)c(C(=O)O)cn1c23 (centres unmarked) [OFLX, OFLOXAIN, reference compound]
STUDY TARGET: M. intracellulare
MEASURE UNIT: µg/mL
MIC: 6.25
//
MOLECULE: NC1CN(c2c(F)cc3c(=O)c(C(=O)O)cn(C4CC4)c3c2Cl)CC12CC2 (centres unmarked)
STUDY TARGET: M. intracellulare
MEASURE UNIT: µg/mL
MIC: 0.39
//
MOLECULE: O=C(O)c1cn([C@@H]2C[C@@H]2F)c2c(Cl)c(N3CC4CCCNC4C3)c(F)cc2c1=O (some centres unmarked)
STUDY TARGET: M. intracellulare
MEASURE UNIT: µg/mL
MIC: 0.20
//
MOLECULE: Cc1c(N2CC3CCCNC3C2)c(F)cc2c(=O)c(C(=O)O)cn(C3CC3)c12 (centres unmarked)
STUDY TARGET: M. intracellulare
MEASURE UNIT: µg/mL
MIC: 0.10
//
MOLECULE: C[C@H]1COc2c(N3CC4CCCNC4C3)c(F)cc3c(=O)c(C(=O)O)cn1c23 (some centres unmarked)
STUDY TARGET: M. intracellulare
MEASURE UNIT: µg/mL
MIC: 0.39
//
MOLECULE: COc1c(N2CC(N)C3(CC3)C2)c(F)cc2c(=O)c(C(=O)O)cn([C@@H]3C[C@@H]3F)c12 (some centres unmarked)
STUDY TARGET: M. intracellulare
MEASURE UNIT: µg/mL
MIC: 0.39
//
MOLECULE: O=C(O)c1cn(C2CC2)c2c(Cl)c(N3CC4CCCNC4C3)c(F)cc2c1=O (centres unmarked)
STUDY TARGET: M. intracellulare
MEASURE UNIT: µg/mL
MIC: 0.10
